Values from patent US7468368B2

Where a name gives a salt, the structure may show the parent alone.
measured-endpoint: melting point (°C)

// worked examples, melting point included
{"compound": "COc1cccc(C2(CN)CCN(C(=O)CN3CCN(c4cnccn4)CC3)CC2)c1.O=C(O)C(=O)O.O=C(O)C(=O)O", "endpoint-result": 120}
{"compound": "O=C(CN1CCN(c2ccncn2)CC1)N1CC=C(c2cccc(C(F)(F)F)c2)CC1 (as salt: oxalate) [Compound No. 27, dioxalate]", "endpoint-result": 160}

(I) CN(C)CC1(c2cccc(C(F)(F)F)c2)CCN(C(=O)CN2CCN(c3cnccn3)CC2)CC1
(II) O=C(CN1CCN(c2cnccn2)CC1)N1CCC(CO)(c2cccc(C(F)(F)F)c2)CC1
Ask: Compare reported melting point values for I and II . Which is lower? Let me know the label of the one you choose.
Reply: I
